Tested on: XF498
Test: NCI tumour cell line growth inhibition, 48 h
Calls of active or inactive are those of the source. No stated cut-off is given here; in the data, active = GI50 up to about 1.1 µM and inactive = higher.
measurement_type: GI50

Worked set:
COc1cc(OC)cc(C(=O)Cc2c(C(=O)c3ccccc3)c3ccccc3n2C(=O)c2ccccc2)c1; 21.4 µM (inactive)
CC(C(=O)c1ccc(Cl)cc1)/C(=N/NC(=O)NN)C(=O)Nc1cccc(C(F)(F)F)c1 (stereo unspecified); > 100 µM (inactive)
CC(=O)C1C(=O)NC(=O)C1=O (stereo unspecified); > 100 µM (inactive)
COC(=O)CC(=O)NCC1=CCC(=O)CC1; > 100 µM (inactive)
Nc1nnc2nc(CC(=O)/C=C/c3ccccc3)c(=O)[nH]n12; > 100 µM (inactive)
COc1cccc2c1C(=O)OC2c1cccc2ccccc12 (stereo unspecified); 34.8 µM (inactive)
CCOc1ccc(/N=N/c2c(-c3ccccc3)nn(C(=O)CC(=O)Nc3cccc(C)c3)c2-c2ccccc2)cc1; 95.1 µM (inactive)
COc1cccc2nc3cc(C)c(C)cc3nc12; > 100 µM (inactive)

# input for lookup
The molecule N#Cc1ccc(C2OCC3CC=CCC3CO2)cc1 (stereo unspecified) showed GI50 equal to > 100 µM (inactive)

Values compiled from ChEMBL document CHEMBL1201862.
